- EXPERIMENT DESCRIPTION: In Vitro Mouse liver S9 Metabolic Stability Assay (Example 1D)
- Type: in vitro ADME
- CONDITIONS: CD-1 mouse liver S9, 1 μM compound, 1 mg/mL S9 protein, 37° C., NADPH regenerating system, UDPGA, PAPS
READOUT LABEL: Mouse S9 Stability: % Remaining After 60 Minutes (%)

Below are worked cases with known answers.
CC(C)c1cnn2c(N[C@H](C)Cc3c[nH]c4ccccc34)cc(-c3cncc(F)c3)nc12 [I-98b] ... 0
Fc1cncc(-c2cc(NCCc3c[nH]c4cccnc34)n3nccc3n2)c1 ... 0
Cc1cnn2c(NCCc3c[nH]c4cccnc34)cc(-c3cncc(F)c3)nc12 ... 0

(a) CC(C)c1cnc2c(N[C@@H]3CCc4[nH]c5ccccc5c4C3)nc(-c3cncc(F)c3)cn12
(b) Cc1cnn2c(NCCc3c[nH]c4ccccc34)cc(-c3cncc(F)c3)nc12
Could you tell me which of a and b has the lower Mouse S9 Stability: % Remaining After 60 Minutes reading? Answer by stating the label of the chosen item.
b
(b: 0%, a: 11%)

---

- EXPERIMENT DESCRIPTION: Mouse Pharmacokinetic Study (Example 1C)
- Format: in vivo
- CONDITIONS: mouse; CD-1 mice, iv, 3 mg/kg; plasma
READOUT LABEL: AUC(0-inf) (ng·h/mL)

Below are worked cases with known answers.
C[C@H](O)c1cnn2c(NCCc3c[nH]c4ccccc34)cc(-c3cncc(F)c3)nc12 [I-222b] ... 567
Cc1cnn2c(NCCc3c[nH]c4ccccc34)cc(-c3cncc(F)c3)nc12 [I-70] ... 872

(1) Fc1cncc(-c2cc(OC3CCCC3)nc(NCCc3c[nH]c4ccccc34)n2)c1 [I-59]
(2) CC(C)c1cnn2c(NCCc3c[nH]c4ccccc34)cc(-c3cncc(F)c3)nc12 [I-2]
Which numeric AUC(0-inf) is bigger, that of 1 or that of 2 ? Answer by stating the label of the chosen item.
1

---

Quick reference for IC50 among some molecules
- EXPERIMENTAL TARGET: AHR (UniProt P35869)
- Construct: IC50
- EXPERIMENT DESCRIPTION: DRE-Luciferase Reporter Assay (Alternate Method) (Example 1B)
- Type: cell-based, murine or human
- CONDITIONS: cell line and AHR activating ligand not specified
- Method: AHR binds to Dioxin Responsive Elements (DRE) upstream of genes that it activates. One measure of AHR activity is activation of a reporter gene, such as luciferase, downstream of one or multiple DRE elements. […] Cells were incubated for 4, 15 or 24 hours or another time point and then lysed for determination of luciferase activity as a read-out of the AHR activation or inhibition. […] IC50 values were determined as the concentration which inhibits half of the luciferase activity.

N#Cc1cncc(-c2nc(NCCc3c[nH]c4ccccc34)cc(OC3CCCC3)n2)c1 ... < 500 nM
CN(C)C(=O)c1cnn2c(NCCc3c[nH]c4ccccc34)cc(-c3cncc(F)c3)nc12 ... < 500 nM
Oc1ccc2c(c1)CC(Nc1cc(-c3cncc(F)c3)nc3ccnn13)C2 (stereo not drawn) ... 500 to 1000 nM
CC(C)c1cnn2c(NCCc3c[nH]c4cccnc34)cc(-c3cncc(F)c3)nc12 ... 500 to 1000 nM
CN(C)c1cnn2c(N[C@@H]3CCc4[nH]c5ccccc5c4C3)nc(-c3cncc(F)c3)nc12 ... < 500 nM

Answer briefly: IC50 recorded on AHR (UniProt P35869) for Cc1cnn2c(NC(Cc3c[nH]c4ccccc34)C(N)=O)cc(-c3cncc(F)c3)nc12 (stereo not drawn) [I-190b]
> 1500 nM

Answer briefly: IC50 recorded on AHR (UniProt P35869) for Cc1cnn2c(N[C@H]3Cc4ccc(O)cc4C3)cc(-c3cncc(F)c3)nc12
< 500 nM

Answer briefly: IC50 recorded on AHR (UniProt P35869) for OCc1cnn2c(NCCc3c[nH]c4ccccc34)cc(-c3cncc(F)c3)nc12
< 500 nM

Answer briefly: IC50 recorded on AHR (UniProt P35869) for CC(C)c1cnn2c(NCCc3c[nH]c4cccnc34)nc(-c3cncc(F)c3)nc12
< 500 nM

---

- EXPERIMENT DESCRIPTION: Mouse Pharmacokinetic Study (Example 1C)
- Assay type: in vivo
- CONDITIONS: mouse, plasma; CD-1 mice, po, 30 mg/kg
READOUT LABEL: bioavailability (%)

Below are worked cases with known answers.
Cc1cnn2c(N[C@H]3CCc4[nH]ccc4C3)nc(-c3cncc(F)c3)nc12 [I-259a] ... 3
Fc1cncc(-c2nc(N[C@@H]3CCc4[nH]c5ccccc5c4C3)c3ncccc3n2)c1 [I-126] ... 100
CC(C)c1cnn2c(N[C@@H]3CCc4[nH]c5ccccc5c4C3)nc(-c3cncc(F)c3)nc12 [I-40] ... 75
Fc1cncc(-c2cc(NCCc3c[nH]c4ccccc34)n3nccc3n2)c1 [I-103] ... 6
CC(C)c1cnn2c(N[C@H]3CCc4[nH]ccc4C3)nc(-c3cncc(F)c3)nc12 [I-137a] ... 19

(a) Cc1cnn2c(N[C@@H]3CCc4[nH]c5ccccc5c4C3)nc(-c3cncc(F)c3)nc12 [I-201]
(b) C[C@H](O)c1cnn2c(N[C@@H]3CCc4[nH]c5ccccc5c4C3)nc(-c3cncc(F)c3)nc12 [I-118]
(c) Fc1cncc(-c2nc(N[C@@H]3CCc4[nH]c5ccccc5c4C3)n3ncc(Br)c3n2)c1 [I-154]
Form: Sort by [bioavailability] Order [ ascending ] Your reply should list the labels following the order given in the request.
b, c, a
(b: 3%, c: 39%, a: 79%)

---

- EXPERIMENTAL TARGET: AHR (UniProt P35869)
- Construct: IC50
- EXPERIMENT DESCRIPTION: DRE-Luciferase Reporter Assay (Alternate Method) (Example 1B)
- Type: cell-based, murine or human
- CONDITIONS: cell line and AHR activating ligand not specified
pIC50: −log10 of the molar value.
READOUT LABEL: pIC50

State its pIC50 for this compound: CC(C)c1cnn2c(NC3CCc4[nH]c5c(F)cccc5c4C3)cc(-c3cncc(F)c3)nc12 (stereo not shown)
< 5.82

State its pIC50 for this compound: CC(C)c1cnn2c(NCCc3c[nH]c4c(F)cc(F)cc34)nc(-c3cncc(F)c3)nc12
> 6.30

State its pIC50 for this compound: CC(C)c1cnn2c(NC3CCc4[nH]c5ccccc5c4C3)nc(N(C)C)nc12 (stereo not shown)
< 5.82

State its pIC50 for this compound: Cc1cnn2c(N[C@H]3CCc4[nH]c5c(F)cccc5c4C3)cc(-c3cncc(F)c3)nc12 [I-216b]
< 5.82

State its pIC50 for this compound: Cc1[nH]c2c(F)cccc2c1CCNc1cc(-c2cncc(F)c2)nc2c(C(C)C)cnn12
> 6.30

State its pIC50 for this compound: CC(C)c1cnn2c(N[C@H]3CCc4cn[nH]c4C3)cc(-c3cncc(F)c3)nc12 (single isomer, unassigned) [I-32a]
< 5.82

State its pIC50 for this compound: Cc1cnn2c(NCC(C)c3c[nH]c4ccccc34)cc(-c3cncc(F)c3)nc12 (stereo not shown)
5.82 to 6.00

State its pIC50 for this compound: O=C(c1cnn2c(N[C@@H]3CCc4[nH]c5ccccc5c4C3)cc(-c3cncc(F)c3)nc12)N1CCOCC1
< 5.82

State its pIC50 for this compound: CC(C)c1cnn2c(NCCc3cc[nH]c3)nc(-c3cncc(F)c3)nc12
> 6.30

State its pIC50 for this compound: Fc1cncc(-c2nc(N[C@@H]3CCc4[nH]c5ccccc5c4C3)n3ncc(C4CCCCC4)c3n2)c1
5.82 to 6.00

State its pIC50 for this compound: CC(C)c1cnn2c(NCCc3c[nH]c4ccccc34)nc(-c3cncc(F)c3)nc12
> 6.30

State its pIC50 for this compound: CC(C)Oc1cc(NCCc2c[nH]c3ccccc23)nc(-c2cncc(C#N)c2)n1
> 6.30

State its pIC50 for this compound: Cc1cc(CCNc2cc(-c3cncc(F)c3)nc3c(C(C)C)cnn23)ccc1O
> 6.30

State its pIC50 for this compound: CC(C)c1cnn2c(N[C@H]3CCc4nc(N)sc4C3)nc(-c3cncc(F)c3)nc12 [I-128a]
< 5.82

State its pIC50 for this compound: Cc1[nH]c2c(F)cc(F)cc2c1CCNc1cc(OC(C)C)nc(-c2cncc(F)c2)n1
6.00 to 6.30

State its pIC50 for this compound: O=C(O)c1cnn2c(NC3CCc4[nH]c5ccccc5c4C3)nc(-c3cncc(F)c3)nc12 (stereo not shown)
< 5.82

State its pIC50 for this compound: CC(C)c1cnn2c(N[C@@H]3CCc4[nH]c5ccccc5c4C3)nc(N3CCCCC3)nc12
< 5.82

State its pIC50 for this compound: CON(C)C(=O)c1cnn2c(N[C@@H]3CCc4[nH]c5ccccc5c4C3)cc(-c3cncc(F)c3)nc12
< 5.82

State its pIC50 for this compound: CC(C)n1cnc2c(NCCc3cn(C)c4ccccc34)nc(-c3cncc(F)c3)nc21
< 5.82

State its pIC50 for this compound: Fc1cncc(-c2cc(NCCc3c[nH]c4ccccc34)n3ncc(Br)c3n2)c1
> 6.30
